- experiment.description: Selectivity ratio of human HCT116 cells over human THP1 cells
- Assay type: ADME, cell-based, HCT-116
- condition.parameters: HCT116 cells versus THP1 cells
assay.metric: selectivity ratio
One number for each entry.

# selectivity ratio lookup, item `COC(=O)CC[C@@H](C)[C@H]1CC[C@H]2[C@@H]3CC[C@@H]4C[C@H](OC(=O)C[N+]5(C)CCCCC5)CC[C@]4(C)[C@H]3CC[C@]12C.[Cl-]`
5

====

- experiment.description: Selectivity ratio of human DLD1 cells over CHO cells
- Assay type: cell-based
- condition.parameters: Chinese hamster (CHO), DLD1 cells versus CHO cells
assay.metric: selectivity ratio
Give bare numbers.

Which value of selectivity ratio has been reported for `COC(=O)CC[C@@H](C)[C@H]1CC[C@H]2[C@@H]3CC[C@@H]4C[C@H](OC(=O)C[N+]5(C)CCCCC5)CC[C@]4(C)[C@H]3CC[C@]12C.[Cl-]` in the records?
5

Hey, just so you know, these numbers are from ChEMBL document CHEMBL3621166.
